TARGET_OR_SYSTEM: Nuclear factor erythroid 2-related factor 2 (Homo sapiens) (UniProt Q16236)
Sequence (whole entry): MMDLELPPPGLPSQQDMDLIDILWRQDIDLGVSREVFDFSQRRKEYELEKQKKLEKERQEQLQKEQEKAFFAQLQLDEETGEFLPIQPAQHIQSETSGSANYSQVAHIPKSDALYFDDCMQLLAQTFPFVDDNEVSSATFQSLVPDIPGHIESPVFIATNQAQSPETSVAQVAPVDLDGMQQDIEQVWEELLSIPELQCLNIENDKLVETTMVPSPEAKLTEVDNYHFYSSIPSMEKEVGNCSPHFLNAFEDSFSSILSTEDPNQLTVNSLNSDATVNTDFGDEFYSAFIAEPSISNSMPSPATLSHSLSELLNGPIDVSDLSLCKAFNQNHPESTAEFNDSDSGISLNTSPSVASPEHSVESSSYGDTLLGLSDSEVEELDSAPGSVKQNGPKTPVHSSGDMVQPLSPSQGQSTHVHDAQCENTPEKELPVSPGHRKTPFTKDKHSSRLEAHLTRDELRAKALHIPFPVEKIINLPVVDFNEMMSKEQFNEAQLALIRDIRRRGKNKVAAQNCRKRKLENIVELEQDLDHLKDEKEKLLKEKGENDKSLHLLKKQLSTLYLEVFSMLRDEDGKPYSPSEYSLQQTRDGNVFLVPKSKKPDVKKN
EXPERIMENTAL_DETAILS: Activation of Nrf2 in human HepG2-ARE-C8 cells assessed as induction of ARE-mediated luciferase activity at 20 uM after 24 hrs by luciferase reporter gene assay relative to control
Format: cell-based
MEASUREMENT_TYPE: Activity

Fc1ccc(-c2nc(-c3cccc4[nH]ccc34)no2)cc1F    2.36

A: CC(=O)c1ccc(-c2noc(-c3ccc(F)c(F)c3)n2)cc1
B: Fc1ccc(F)c(-c2nc(-c3ccc4nc[nH]c4c3)no2)c1
C: Cc1ccnc(-c2noc(-c3ccc(F)c(F)c3)n2)c1
D: Fc1ccc(-c2nc(-c3ccc4nc[nH]c4c3)no2)c(F)c1
Descending sort on Activity required. Please respond with the labels ordered as the question requires.
B, C, D, A
(B: 16.9, C: 8.96, D: 4.58, A: 2.61)

* * *

TARGET_OR_SYSTEM: Nuclear factor erythroid 2-related factor 2 (Homo sapiens)
EXPERIMENTAL_DETAILS: Activation of Nrf2 in human HepG2-ARE-C8 cells assessed as induction of ARE-mediated luciferase activity at 20 uM after 24 hrs by luciferase reporter gene assay relative to control
Format: cell-based
MEASUREMENT_TYPE: Activity

Cc1ccc(-c2noc(-c3ccc(F)c(F)c3)n2)cn1    24.7
Clc1cccc(-c2nc(-c3ccc4nc[nH]c4c3)no2)c1    12.8
Fc1ccc(-c2nc(-c3ccc4ccccc4c3)no2)cc1F    1.96
Fc1ccc(-c2nc(-c3ccccn3)no2)cc1F    1.31

P: Fc1ccc(-c2nc(-c3ccc4nc[nH]c4c3)no2)c(Br)c1
Q: Fc1ccc(-c2nc(-c3ncccn3)no2)cc1F
Of the two listed items, P and Q , which carries the larger Activity figure? // caller expects the label of the chosen entry
P

* * *

EXPERIMENTAL_DETAILS: Lipophilicity, log D of the compound at pH 7.4 by potentiometric titration method
Type: physicochemical
ASSAY_CONDITIONS: buffer
MEASUREMENT_TYPE: logD

These solved cases illustrate the format of a correct answer.
COc1cccc(-c2noc(-c3ccc(F)c(F)c3)n2)c1    3.91
Fc1ccc(-c2nc(-c3ccc(-c4ccccc4)cc3)no2)cc1F    4.75
Cc1ccc(-c2noc(-c3ccc(F)c(F)c3)n2)cn1    3.07
Cc1ccc(-c2noc(-c3ccc(F)c(F)c3)n2)cc1    4.16

I: Cc1ccnc(-c2noc(-c3ccc(F)c(F)c3)n2)c1
II: CC(C)(C)c1ccc(-c2noc(-c3ccc(F)c(F)c3)n2)cc1
Quick one: lower logD, I or II ? // caller expects the label of the chosen entry
I
